Numbers sourced from patent US5932555A.

Experiment: Repeated administration toxicity test (intraperitoneal)
Format: in vivo, mouse (CDF1)
Conditions: mouse, in vivo, ip; 5 mg/kg/day i.p. × 10 days; read-out: Fatality rate
experimental.readout: mortality (%)
Give the value in % but do not write % after it.

>  <compound>
COC(CC1C(C)=CCC2C1(C)CCC1C(C)(C)C(O)C(OC3OC(C)C(OC(=O)c4cccc(O)c4)C(OC4OC(CO)C(O)C(O)C4NC(C)=O)C3O)CC12C)C(N)C(=O)O (centres unmarked) [0406TP-1]

>  <experimental.readout>
mortality

>  <measured>
0

$$$$

# next compound below
Q) Consider the compound shown here: `COc1cccc2c1C(=O)c1c(O)c3c(c(O)c1C2=O)C[C@@](O)(C(=O)CO)C[C@@H]3O[C@H]1C[C@H](N)[C@H](O)[C@H](C)O1` What is its recorded mortality?
A) 70

====

Assay: Repeated administration toxicity test (intraperitoneal)
Type: in vivo, mouse (CDF1)
Settings: mouse, in vivo, ip; 1 mg/kg/day i.p. × 10 days; read-out: Fatality rate
experimental.readout: mortality (%)
Kindly provide the numeric value in % only, without the unit symbol.

>  <compound>
COc1cccc2c1C(=O)c1c(O)c3c(c(O)c1C2=O)C[C@@](O)(C(=O)CO)C[C@@H]3O[C@H]1C[C@H](N)[C@H](O)[C@H](C)O1

>  <mortality [%]>
0

$$$$

Next up:
Q) Report mortality for COC(CC1C(C)=CCC2C1(C)CCC1C(C)(C)C(O)C(OC3OC(C)C(OC(=O)c4cccc(O)c4)C(OC4OC(CO)C(O)C(O)C4NC(C)=O)C3O)CC12C)C(N)C(=O)O (centres unmarked) [0406TP-1] please.
A) 0

====

Assay: Acute toxicity test
Conditions: mouse, in vivo, iv
experimental.readout: LD50 at 730 h

Q) I would be grateful if you could share the reported LD50 at 730 h for COC(CC1C(C)=CCC2C1(C)CCC1C(C)(C)C(O)C(OC3OC(C)C(OC(=O)c4cccc(O)c4)C(OC4OC(CO)C(O)C(O)C4NC(C)=O)C3O)CC12C)C(N)C(=O)O (stereo not shown) [0406TP-1] .
A) > 100 mg/kg
